System: EKVX NSCLC
Assay Procedure: NCI-60 one-dose screen, 48 h
Assay Context: 10 µM unless noted
Experimental: Growth inhibition of the EKVX human Non-Small Cell Lung tumor cell line is measured as a screen for anti-cancer activity. Cells are grown in 96 well plates and exposed to the test compound for 48 hours. Compounds are tested at a single concentration, which is 10^-5 M for most compounds. The reported endpoint is percent growth (GI% or GIPRCNT), where numbers from 0 - 100% represent growth inhibition, and numbers from -100% - 0 represent cell death. […]
Compounds without any hit were thinned out: in the full panel of roughly 83,000, 20% have a hit. Calls of active or inactive are those of the source. Rule for the calls: active = growth percent below 10; inactive = the rest.
Return exactly one item of active, inactive

Solved entries:
Molecule	Class Name
O=C(/C=C/c1ccc([N+](=O)[O-])o1)NNC(=O)c1cc2ccccc2cc1O	inactive
CCCCN(C)N=Nc1ccc(C(N)=O)cc1	inactive
O=C(N/N=C/[C@H](O)[C@H](O)[C@H](O)CO)c1ccc(NC(=O)c2cccnc2)cc1	inactive
O=C(CSc1nccc(Nc2ccc(S(=O)(=O)Nc3nccs3)cc2)n1)c1ccc(C(F)(F)F)cc1	inactive
COc1ccc(NC2=C(Br)C(=O)C(C)=C(C)C2=O)cc1	inactive
OC(COc1ccccc1Cl)CN1CCN(c2cccc(Cl)c2)CC1 (stereo not given)	inactive

Hi team, can someone confirm the assay call for Cc1cccc(OCC(O)CN2CCN(c3ccc(Cl)cc3)CC2)c1 (stereo not given) ? inactive

Hi team, can someone confirm the assay call for CC1Cc2ccccc2N1NC(=O)c1ccc(Cl)c(S(N)(=O)=O)c1 (stereo not given) ? inactive

Hi team, can someone confirm the assay call for N#C/C(=C\c1cccc2cnccc12)n1nnc2cccc(F)c21 ? inactive

Hi team, can someone confirm the assay call for COc1cc(-c2nc3sccn3c2-c2ccnc(NCCCNS(=O)(=O)c3ccc(F)cc3)n2)ccc1F ? inactive

Hi team, can someone confirm the assay call for Cc1cc(O)c(C2=NN(c3ccc(S(N)(=O)=O)cc3)C(c3ccccc3O)C2)cc1Cl (stereo not given) ? active
